Parameter Selectivity: see the listing below.
# subject of test: Nitric oxide synthase (inducible and endothelial) (Homo sapiens) (UniProt P35228+P29474)
# Sequence (P35228 whole entry): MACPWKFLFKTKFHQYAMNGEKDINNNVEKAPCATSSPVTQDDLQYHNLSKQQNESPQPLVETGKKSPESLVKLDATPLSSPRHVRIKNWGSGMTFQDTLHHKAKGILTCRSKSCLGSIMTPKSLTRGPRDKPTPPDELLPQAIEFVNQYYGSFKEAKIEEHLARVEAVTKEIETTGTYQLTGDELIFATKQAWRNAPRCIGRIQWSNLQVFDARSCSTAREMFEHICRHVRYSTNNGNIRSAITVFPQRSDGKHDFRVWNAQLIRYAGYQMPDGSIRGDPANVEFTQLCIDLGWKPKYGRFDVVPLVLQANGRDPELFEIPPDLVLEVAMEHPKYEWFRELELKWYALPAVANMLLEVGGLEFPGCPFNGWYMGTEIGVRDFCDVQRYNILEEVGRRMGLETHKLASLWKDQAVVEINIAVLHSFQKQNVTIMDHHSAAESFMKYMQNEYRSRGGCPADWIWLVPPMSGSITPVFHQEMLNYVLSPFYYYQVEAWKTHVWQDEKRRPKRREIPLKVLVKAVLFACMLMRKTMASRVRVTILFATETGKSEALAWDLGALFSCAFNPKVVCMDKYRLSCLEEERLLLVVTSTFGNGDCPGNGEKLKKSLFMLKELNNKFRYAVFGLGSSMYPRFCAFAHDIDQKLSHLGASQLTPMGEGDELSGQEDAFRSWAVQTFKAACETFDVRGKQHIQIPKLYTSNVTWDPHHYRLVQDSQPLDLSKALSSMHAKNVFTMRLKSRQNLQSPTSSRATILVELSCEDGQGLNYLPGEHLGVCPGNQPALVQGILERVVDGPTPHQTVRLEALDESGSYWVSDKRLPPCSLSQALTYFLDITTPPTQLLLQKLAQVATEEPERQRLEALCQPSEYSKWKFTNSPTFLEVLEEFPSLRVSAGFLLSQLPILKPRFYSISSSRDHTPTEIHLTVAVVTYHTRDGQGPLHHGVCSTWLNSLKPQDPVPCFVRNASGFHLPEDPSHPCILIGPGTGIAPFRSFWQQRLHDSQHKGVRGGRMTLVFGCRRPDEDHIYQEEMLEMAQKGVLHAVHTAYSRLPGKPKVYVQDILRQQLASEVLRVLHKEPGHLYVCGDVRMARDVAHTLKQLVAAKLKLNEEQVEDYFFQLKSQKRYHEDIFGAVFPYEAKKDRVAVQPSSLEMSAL
# test method notes: Selectivity is the ratio between the IC50 values of heNOS and hiNOS
# Format: protein assay
Keep it simple and answer with nothing but the number.

molecule: CC1(C)CCN=C(N)C1
Selectivity: 1.6
//
molecule: CC1CCCC(N)=N1 (stereo unspecified)
Selectivity: 1
//
molecule: CCCC1CCCC(N)=N1 (stereo unspecified)
Selectivity: 11
//
molecule: NC1=NC(C2CCCCC2)CCC1 (stereo unspecified)
Selectivity: 16
//
molecule: NC1=NC(CC2CCCCC2)CCC1 (stereo unspecified)
Selectivity: 64
//
molecule: NC1=NC(C(F)(F)F)CCC1 (stereo unspecified)
Selectivity: 4

What Selectivity appears in the records for this molecule with Nitric oxide synthase (inducible and endothelial) (Homo sapiens) (UniProt P35228+P29474)? NC1=Nc2ccccc2CC1 2

What Selectivity appears in the records for this molecule with Nitric oxide synthase (inducible and endothelial) (Homo sapiens) (UniProt P35228+P29474)? CC1CCCN=C1N (stereo unspecified) 0.5

What Selectivity appears in the records for this molecule with Nitric oxide synthase (inducible and endothelial) (Homo sapiens) (UniProt P35228+P29474)? CC1CC(N)=NC(C)C1 (stereo unspecified) 4

What Selectivity appears in the records for this molecule with Nitric oxide synthase (inducible and endothelial) (Homo sapiens) (UniProt P35228+P29474)? NC1=NCCC(C(F)(F)F)C1 (stereo unspecified) 15

What Selectivity appears in the records for this molecule with Nitric oxide synthase (inducible and endothelial) (Homo sapiens) (UniProt P35228+P29474)? CCC1CCN=C(N)C1 (stereo unspecified) 5

###

Reported pIC50 for target or system UniProt:P35228, by entry.
Here pIC50 is given on a logarithmic scale as minus log10 of the concentration in mol/L.

The following compounds have reported results that may help.
compound: NC1=NCCC(C(F)(F)F)C1 (centres undefined)
subject of test: UniProt:P35228
pIC50: 5.49
//
compound: CC1CCC(N)=NC1 (centres undefined)
subject of test: UniProt:P35228
pIC50: 5.29
//
compound: CC1CCCC(N)=N1 (centres undefined)
subject of test: UniProt:P35228
pIC50: 6.30

--- query ---
What pIC50 appears in the records for this compound with UniProt:P35228? N=C1CCCCN1 5.96

###

Parameter IC50: see the listing below.
# subject of test: Nitric oxide synthase 3 (Homo sapiens, UniProt P29474)
# Sequence (P29474 whole entry): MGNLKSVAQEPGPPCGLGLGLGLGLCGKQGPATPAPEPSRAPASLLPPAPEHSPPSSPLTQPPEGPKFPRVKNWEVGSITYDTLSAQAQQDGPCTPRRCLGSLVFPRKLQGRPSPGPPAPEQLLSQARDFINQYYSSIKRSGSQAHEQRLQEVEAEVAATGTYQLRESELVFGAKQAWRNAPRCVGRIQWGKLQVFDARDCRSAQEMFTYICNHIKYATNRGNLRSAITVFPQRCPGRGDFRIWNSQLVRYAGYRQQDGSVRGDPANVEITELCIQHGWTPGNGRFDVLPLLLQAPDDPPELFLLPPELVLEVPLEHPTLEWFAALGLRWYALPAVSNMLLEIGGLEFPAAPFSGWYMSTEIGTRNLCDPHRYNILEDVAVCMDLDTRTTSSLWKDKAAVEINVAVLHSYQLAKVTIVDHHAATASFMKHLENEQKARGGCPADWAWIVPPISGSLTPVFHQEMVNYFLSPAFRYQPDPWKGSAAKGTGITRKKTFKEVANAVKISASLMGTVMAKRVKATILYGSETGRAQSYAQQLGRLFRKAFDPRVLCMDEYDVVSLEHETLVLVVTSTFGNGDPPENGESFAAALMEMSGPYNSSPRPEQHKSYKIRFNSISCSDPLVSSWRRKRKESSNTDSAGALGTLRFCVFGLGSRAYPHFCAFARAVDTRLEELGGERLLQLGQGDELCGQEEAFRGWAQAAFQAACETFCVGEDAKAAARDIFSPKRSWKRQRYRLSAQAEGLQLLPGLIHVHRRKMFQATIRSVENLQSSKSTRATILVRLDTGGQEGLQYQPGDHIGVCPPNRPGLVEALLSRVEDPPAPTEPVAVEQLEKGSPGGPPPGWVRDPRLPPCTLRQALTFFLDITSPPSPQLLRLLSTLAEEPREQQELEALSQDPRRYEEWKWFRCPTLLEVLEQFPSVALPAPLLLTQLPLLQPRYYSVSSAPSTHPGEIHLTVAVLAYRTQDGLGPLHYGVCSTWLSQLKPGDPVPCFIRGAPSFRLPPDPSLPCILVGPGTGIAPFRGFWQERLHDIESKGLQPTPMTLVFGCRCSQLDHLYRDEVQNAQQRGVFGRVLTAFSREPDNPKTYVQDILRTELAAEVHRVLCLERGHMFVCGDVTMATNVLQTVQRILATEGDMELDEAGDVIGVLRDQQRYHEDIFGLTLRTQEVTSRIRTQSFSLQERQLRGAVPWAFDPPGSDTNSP
Unit µM implied. Number only.

compound: CCCC1CCCC(N)=N1 (stereo unspecified)
recorded result: 2.2
--
compound: NC1=NC(C2CCCCC2)CCC1 (stereo unspecified)
recorded result: 142

What does the record list as IC50 for NC1=NC(C(F)(F)F)CCC1 (stereo unspecified) ? 2

What does the record list as IC50 for CC1(C)CCN=C(N)C1 ? 5.3

###

Reported pIC50 for target or system Nitric oxide synthase 1 (Homo sapiens), by entry.
Here pIC50 is given on a logarithmic scale as minus log10 of the concentration in mol/L.

The following compounds have reported results that may help.
compound: NC1=NC(C(F)(F)F)CCC1 (configuration not stated)
recorded result: 6.30
//
compound: NC1=NC(C2CCCCC2)CCC1 (configuration not stated)
recorded result: 5.28
//
compound: CC1CCCN=C1N (configuration not stated)
recorded result: 6.15

--- query ---
What does the record list as pIC50 for CCC1CCNC(=N)C1 (configuration not stated) ? 5.80

###

# subject of test: Nitric oxide synthase 1 (Homo sapiens)
# Sequence (P29475 whole entry): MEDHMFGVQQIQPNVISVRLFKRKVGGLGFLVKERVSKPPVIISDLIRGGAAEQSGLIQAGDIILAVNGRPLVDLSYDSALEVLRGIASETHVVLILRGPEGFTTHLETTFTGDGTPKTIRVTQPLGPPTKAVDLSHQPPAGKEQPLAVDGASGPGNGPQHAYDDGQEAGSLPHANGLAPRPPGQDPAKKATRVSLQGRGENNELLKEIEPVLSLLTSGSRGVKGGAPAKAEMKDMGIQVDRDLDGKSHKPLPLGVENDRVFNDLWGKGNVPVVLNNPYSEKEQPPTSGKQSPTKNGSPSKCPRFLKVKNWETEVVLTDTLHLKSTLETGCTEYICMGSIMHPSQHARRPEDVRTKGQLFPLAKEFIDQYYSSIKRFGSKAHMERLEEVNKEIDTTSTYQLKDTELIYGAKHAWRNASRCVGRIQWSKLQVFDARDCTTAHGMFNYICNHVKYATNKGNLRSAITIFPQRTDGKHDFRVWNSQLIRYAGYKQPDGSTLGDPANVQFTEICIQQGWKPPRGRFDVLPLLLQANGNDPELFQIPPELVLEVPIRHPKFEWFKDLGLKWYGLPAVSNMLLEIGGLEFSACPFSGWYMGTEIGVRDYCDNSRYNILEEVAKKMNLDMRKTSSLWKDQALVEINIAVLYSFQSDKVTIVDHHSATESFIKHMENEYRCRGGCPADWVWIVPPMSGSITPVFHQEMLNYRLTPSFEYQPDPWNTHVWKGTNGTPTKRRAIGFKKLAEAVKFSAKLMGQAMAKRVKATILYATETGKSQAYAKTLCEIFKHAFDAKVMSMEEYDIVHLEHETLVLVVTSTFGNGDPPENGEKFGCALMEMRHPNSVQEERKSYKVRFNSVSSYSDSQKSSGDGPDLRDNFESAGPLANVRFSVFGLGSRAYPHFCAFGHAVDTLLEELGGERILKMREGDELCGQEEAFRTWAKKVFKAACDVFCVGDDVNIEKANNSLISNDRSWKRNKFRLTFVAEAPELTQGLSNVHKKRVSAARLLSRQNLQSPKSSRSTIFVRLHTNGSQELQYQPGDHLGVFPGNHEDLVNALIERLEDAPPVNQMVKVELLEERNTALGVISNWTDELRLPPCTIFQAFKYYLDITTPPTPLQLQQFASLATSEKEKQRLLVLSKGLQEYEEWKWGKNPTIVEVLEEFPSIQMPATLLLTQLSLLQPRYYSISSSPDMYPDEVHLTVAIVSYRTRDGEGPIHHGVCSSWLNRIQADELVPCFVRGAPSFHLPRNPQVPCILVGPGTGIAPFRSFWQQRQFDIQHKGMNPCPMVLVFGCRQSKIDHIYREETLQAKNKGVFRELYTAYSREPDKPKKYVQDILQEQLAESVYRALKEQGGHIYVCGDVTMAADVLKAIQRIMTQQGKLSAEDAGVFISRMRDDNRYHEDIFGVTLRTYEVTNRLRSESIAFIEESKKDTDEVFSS
pIC50: −log10 of the molar value.
measure name: pIC50

What does the record list as pIC50 for CCCC1CCN=C(N)C1 (stereo not drawn) ? < 4.00

What does the record list as pIC50 for CNC1=NCCCC1 ? < 4.00

What does the record list as pIC50 for CN1CCCCC1=N ? < 4.00
